# Tested on: P. aeruginosa (Pa, ATCC 27853)
# TEST PROTOCOL: microbe, parasite or virus in culture
# Assay type: cell-based, Pseudomonas aeruginosa
# RUN PARAMETERS: ATCC 27853, 24 h
# Description: All cyclic and linear peptides were screened for antibacterial activity against four Gram-positive strains: B. subtilis (Bs, ATCC 23857), C. glutamicum (Cg, ATCC 13032), S. aureus (Sa, ATCC 9144) and S. epidermidis RP62A (Se, ATCC 35984), and two Gram-negative strains: E. coli (Ec, ATCC 25922) and P. aeruginosa (Pa, ATCC 27853). The activity was assessed using a broth microdilution assay according to a modified CLSI-based method. […]
Where a SMILES comes first, the peptide text is derived from it. Bridges are numbered along the chain shown (N, C = ends). The star is where a group is joined. Lauroyl = CCCCCCCCCCCC(=O)*
OBSERVATION TYPE: Antimicrobial Activity (MIC) Gram − Pa (µg/mL)

1. CCCCCCCCCCCC(=O)N[C@H]1CSSC[C@@H](C(=O)N[C@@H](CCCCN)C(=O)N[C@@H](CC(C)C)C(N)=O)NC(=O)[C@H](CCCCN)NC(=O)[C@H](Cc2c[nH]c3ccccc23)NC(=O)CNC(=O)CNC(=O)[C@@H]2CCCN2C(=O)[C@H](CCCCN)NC(=O)[C@H](CCCCN)NC(=O)CNC1=O [Peptide C12-cTurg-1, C12 -(CGKKPGGWKC)KL-NH2] (Lauroyl-CGKKPGGWKCKL-NH2; disulfide 1-10); 16
2. CC(C)C[C@H](NC(=O)[C@H](CCCCN)NC(=O)[C@@H]1CSSC[C@H](N)C(=O)NCC(=O)N[C@@H](CCCCN)C(=O)N[C@@H](CCCCN)C(=O)N[C@@H](Cc2c[nH]c3ccccc23)C(=O)N[C@@H](Cc2c[nH]c3ccccc23)C(=O)NCC(=O)N[C@@H](Cc2c[nH]c3ccccc23)C(=O)N[C@@H](CCCCN)C(=O)N1)C(N)=O [cTurg-2] (H-CGKKWWGWKCKL-NH2; disulfide 1-10; N-terminus assumed); 64
3. CC(C)C[C@H](NC(=O)[C@H](CCCNC(=N)N)NC(=O)[C@@H]1CSSC[C@H](N)C(=O)NCC(=O)N[C@@H](CCCNC(=N)N)C(=O)N[C@@H](CCCNC(=N)N)C(=O)N[C@@H](Cc2c[nH]c3ccccc23)C(=O)N[C@@H](Cc2c[nH]c3ccccc23)C(=O)NCC(=O)N[C@@H](Cc2c[nH]c3ccccc23)C(=O)N[C@@H](CCCNC(=N)N)C(=O)N1)C(N)=O [cTurg-5] (H-CGRRWWGWRCRL-NH2; disulfide 1-10; N-terminus assumed); 16
